- Tested on: human cervical tumor cell line HeLa (ATCC CCL-2)
- assay info: SAC-Formation - Nocodazole-Induced Assay
- Assay type: cell-based
- run conditions: Homo sapiens, HeLa, 24 h, HeLa cells, nocodazole 0.1 μg/ml together with test compound, decrease of mitotic cells (phospho-histone H3 Ser10)
readout kind: IC50

[[record]]
query_smiles = "Cc1nsc(Nc2cnc3ccccc3n2)c1C(=O)Nc1ccc(Oc2ccc(SC(F)(F)F)cc2)nc1"
meas_value = "4700 nM"

[[record]]
query_smiles = "CCNS(=O)(=O)c1ccc(NC(=O)c2c(C)nsc2Nc2cnc3ccccc3n2)cc1"
meas_value = "810 nM"

[[record]]
query_smiles = "Cc1nsc(Nc2cnc3ccccc3n2)c1C(=O)Nc1ccc(S(C)(=O)=O)cc1"
meas_value = "1200 nM"

[[record]]
query_smiles = "Cc1nsc(Nc2cnc(C(F)(F)F)cn2)c1C(=O)Nc1ccc(F)c(OC[C@@H]2CCN(CCC(F)(F)F)C2)c1"
meas_value = "33 nM"


###

- target: CDK2/CycE (Homo sapiens, UniProt P24941)
- Construct: GST
- assay info: CDK2/CycE kinase assay (TR-FRET)
- run conditions: avg, read-out: CDK2 avg (IC50 [mol/l])
readout kind: IC50

[[record]]
molecule = "Cc1nsc(Nc2cnc(C(F)(F)F)cn2)c1C(=O)Nc1ccc(F)c(OC2CCN(CC(F)F)CC2)c1 [Example 265]"
meas_value = "> 20 µM"

[[record]]
molecule = "Cc1nsc(Nc2ccc(C#N)cn2)c1C(=O)Nc1ccc(OC2CCCN(CCF)C2)nc1 (stereo not drawn) [Example 38]"
meas_value = "≥ 20 µM"

[[record]]
molecule = "Cc1nsc(Nc2cnc(C(F)(F)F)cn2)c1C(=O)Nc1ccc(OC2CCN(CCF)CC2)nc1 [Example 7]"
meas_value = "≥ 20 µM"

[[record]]
molecule = "Cc1nsc(Nc2cnc(C(F)(F)F)cn2)c1C(=O)Nc1ccc(N2CCN(CC(F)(F)F)CC2)nc1 [Example 360]"
meas_value = "> 20 µM"

[[record]]
molecule = "Cc1nsc(Nc2cncc(C(F)(F)F)n2)c1C(=O)Nc1ccc(F)c(OC2CCN(CC(F)(F)F)CC2)c1 [Example 267]"
meas_value = "> 20 µM"

[[record]]
molecule = "Cc1nsc(Nc2cncc(C(F)(F)F)n2)c1C(=O)Nc1ccc(C(=O)NC2CN(CC(F)(F)F)C2)cc1 [Example 280]"
meas_value = "11 µM"

[[record]]
molecule = "Cc1nsc(Nc2cnc(C(F)(F)F)cn2)c1C(=O)Nc1ccc(OCCN(C)C(=O)OC(C)(C)C)nc1 [Example 429]"
meas_value = "> 20 µM"

[[record]]
molecule = "Cc1nsc(Nc2cnc(C(F)(F)F)cn2)c1C(=O)Nc1ccc(OCC2CCN(CC(F)(F)F)CC2(F)F)nc1 (stereo not drawn) [Example 392]"
meas_value = "> 20 µM"

[[record]]
molecule = "CC(=O)N1CCC(Oc2ccc(NC(=O)c3c(C)nsc3Nc3cnc(C(F)(F)F)cn3)cn2)CC1 [Example 11]"
meas_value = "≥ 20 µM"

[[record]]
molecule = "Cc1nsc(Nc2cnc(C(F)(F)F)cn2)c1C(=O)Nc1ccc(C2CCN(CC(F)F)CC2)nc1 [Example 357]"
meas_value = "> 20 µM"

[[record]]
molecule = "Cc1nsc(Nc2cnc(C(F)(F)F)cn2)c1C(=O)Nc1ccc(OCCNC(=O)C(F)(F)F)nc1 [Example 425]"
meas_value = "≥ 20 µM"

[[record]]
molecule = "CCCCN1CC[C@H](Oc2ccc(NC(=O)c3c(C)nsc3Nc3cnc(C(F)(F)F)cn3)cn2)[C@H](F)C1 [Example 148]"
meas_value = "> 20 µM"

[[record]]
molecule = "Cc1nsc(Nc2cnc(C(F)(F)F)cn2)c1C(=O)Nc1ccc(F)c(OCCCN(C)CC(F)F)c1 [Example 301]"
meas_value = "> 20 µM"

[[record]]
molecule = "Cc1nsc(Nc2cnc(C(F)(F)F)cn2)c1C(=O)Nc1ccc(F)c(OC[C@@H]2CCN(CC(F)(F)F)C2)c1 [Example 339]"
meas_value = "> 20 µM"

[[record]]
molecule = "Cc1nsc(Nc2cnc(C(F)(F)F)cn2)c1C(=O)Nc1ccc(F)c(O[C@H]2CCN(CCC(F)(F)F)C2)c1 [Example 415]"
meas_value = "> 20 µM"

[[record]]
molecule = "Cc1nsc(Nc2cc(C#N)ccn2)c1C(=O)Nc1ccc(OCCC(=O)OC(C)(C)C)nc1 [Example 200]"
meas_value = "> 20 µM"

[[record]]
molecule = "Cc1nsc(Nc2cnc(C(F)(F)F)cn2)c1C(=O)Nc1ccc(F)c(OC2CCN(C(=O)OC(C)(C)C)CC2)c1 [Example 229]"
meas_value = "> 20 µM"

[[record]]
molecule = "Cc1nsc(Nc2cnc3ccccc3n2)c1C(=O)Nc1cccc(C(=O)NC(C)(C)C)c1 [Example 53]"
meas_value = "≥ 20 µM"

[[record]]
molecule = "Cc1nsc(Nc2cnc3ccccc3n2)c1C(=O)Nc1ccc(OC2CCN(C(=O)OC(C)(C)C)CC2)nc1 [Example 18]"
meas_value = "≥ 20 µM"

[[record]]
molecule = "Cc1nsc(Nc2cncc(C(F)(F)F)n2)c1C(=O)Nc1ccc(OC2CCN(CCF)CC2)nc1 [Example 14]"
meas_value = "13 µM"

[[record]]
molecule = "CC(=O)N(C)CCOc1ccc(NC(=O)c2c(C)nsc2Nc2nc3c(C(F)(F)F)cccc3s2)cn1 [Example 112]"
meas_value = "≥ 20 µM"

[[record]]
molecule = "Cc1nsc(Nc2cnc(C(F)(F)F)cn2)c1C(=O)Nc1ccc(O[C@H]2CCN(CCC(F)(F)F)C[C@@H]2F)nc1 [Example 364]"
meas_value = "> 20 µM"

[[record]]
molecule = "Cc1nsc(Nc2cnc3ccccc3n2)c1C(=O)Nc1cccc(NS(=O)(=O)C2CCN(C(=O)OC(C)(C)C)C2)c1 (stereo not drawn) [Example 290]"
meas_value = "19 µM"

[[record]]
molecule = "COC(=O)c1cc(NC(=O)c2c(C)nsc2Nc2cnc3ccccc3n2)cc(C(=O)OC)c1 [Example 237]"
meas_value = "> 20 µM"

[[record]]
molecule = "Cc1nsc(Nc2cnc3ccccc3n2)c1C(=O)Nc1cccc(NS(=O)(=O)C2CCN(CC(F)F)CC2)c1 [Example 282]"
meas_value = "> 20 µM"

[[record]]
molecule = "CC(=O)N1CCC(Oc2ccc(NC(=O)c3c(C)nsc3Nc3cncc(C(F)(F)F)n3)cn2)CC1 [Example 17]"
meas_value = "≥ 20 µM"

[[record]]
molecule = "Cc1nsc(Nc2cnc(C(F)(F)F)cn2)c1C(=O)Nc1ccc(O[C@H]2CCN(CC(F)(F)F)C[C@H]2F)nc1 [Example 145]"
meas_value = "> 20 µM"

[[record]]
molecule = "Cc1nsc(Nc2cnc3ccccc3n2)c1C(=O)Nc1ccc(OC2CCNCC2)nc1 [Example 19]"
meas_value = "≥ 20 µM"

[[record]]
molecule = "Cc1nsc(Nc2cncc(C(F)(F)F)n2)c1C(=O)Nc1ccc(C(=O)N2CCN(CC(F)F)CC2)cc1 [Example 273]"
meas_value = "> 20 µM"

[[record]]
molecule = "CCCN1CCC(COc2ccc(NC(=O)c3c(C)nsc3Nc3cnc(C(F)(F)F)cn3)cn2)C(F)(F)C1 (stereo not drawn) [Example 394]"
meas_value = "> 20 µM"


###

- Tested on: HeLa
- assay info: Proliferation assay (crystal violet), HeLa
- Format: cell-based
- run conditions: Homo sapiens, HeLa, 96 h, HeLa cells; 4 days incubation; crystal violet staining; read-out: IC50 inhibition of proliferation, HeLa
pIC50: −log10 of the molar value.
readout kind: pIC50

[[record]]
compound = "Cc1nsc(Nc2cnc(C(F)(F)F)cn2)c1C(=O)Nc1ccc(OCC2CCN(CCF)C2)nc1 (stereo not drawn)"
readout_relation = "="
meas_value = 6.09

[[record]]
compound = "Cc1nsc(Nc2cnc3ccccc3n2)c1C(=O)Nc1ccc(NC2CCCN(C(=O)OC(C)(C)C)C2)nc1 (stereo not drawn)"
readout_relation = "="
meas_value = 5.03

[[record]]
compound = "Cc1nsc(Nc2cnc(C(F)(F)F)cn2)c1C(=O)Nc1ccc(F)c(OCCCNCCC(F)(F)F)c1"
readout_relation = "="
meas_value = 6.16

[[record]]
compound = "CCNC(=O)c1cccc(NC(=O)c2c(C)nsc2Nc2ccc(C#N)cn2)c1"
readout_relation = "<"
meas_value = 5.00

[[record]]
compound = "COC(=O)CCNC(=O)c1cccc(NC(=O)c2c(C)nsc2Nc2cnc3ccccc3n2)c1"
readout_relation = "="
meas_value = 5.00

[[record]]
compound = "Cc1nsc(Nc2cnc(C(F)(F)F)cn2)c1C(=O)Nc1ccc(F)c(OCC2CCN(CC(F)(F)F)CC2)c1"
readout_relation = "="
meas_value = 6.64

[[record]]
compound = "Cc1nsc(Nc2cnc3ccccc3n2)c1C(=O)Nc1cccc(NS(=O)(=O)C2CCN(CC(F)(F)F)CC2)c1"
readout_relation = "="
meas_value = 5.10

[[record]]
compound = "Cc1nsc(Nc2cnc(C(F)(F)F)cn2)c1C(=O)Nc1ccc(F)c(OC[C@H]2CCN(CC(F)F)C2)c1"
readout_relation = "="
meas_value = 6.08

[[record]]
compound = "Cc1nsc(Nc2cnc(C(F)(F)F)cn2)c1C(=O)Nc1ccc(O[C@H]2CCN(CC(F)(F)F)C[C@H]2F)nc1"
readout_relation = "="
meas_value = 6.80

[[record]]
compound = "Cc1nsc(Nc2cnc(C(F)(F)F)cn2)c1C(=O)Nc1ccc(OCCN2CCC(F)(F)CC2)nc1"
readout_relation = "="
meas_value = 6.48

[[record]]
compound = "Cc1nsc(Nc2cnc(C(F)(F)F)cn2)c1C(=O)Nc1ccc(F)c(OCCCN(C)CC(F)(F)F)c1"
readout_relation = "="
meas_value = 6.47

[[record]]
compound = "Cc1nsc(Nc2cnc(C(F)(F)F)cn2)c1C(=O)Nc1ccc(O[C@H]2CCN(CC(F)(F)F)C[C@@H]2F)nc1"
readout_relation = "="
meas_value = 6.47

[[record]]
compound = "COc1ccc(NC(=O)c2c(C)nsc2Nc2ccc(C#N)cn2)c(N2CCOCC2)n1"
readout_relation = "<"
meas_value = 5.00

[[record]]
compound = "CC(=O)N1CCN(C(=O)c2cccc(NC(=O)c3c(C)nsc3Nc3cnc4ccccc4n3)c2)CC1"
readout_relation = "="
meas_value = 5.00

[[record]]
compound = "Cc1nsc(Nc2cnc(C(F)(F)F)cn2)c1C(=O)Nc1ccc(F)c(OCC2CCN(C(CF)CF)C2)c1 (stereo not drawn)"
readout_relation = "="
meas_value = 6.17

[[record]]
compound = "Cc1nsc(Nc2ccc(C#N)cn2)c1C(=O)Nc1ccc(OC2CCN(CC(F)(F)F)CC2)nc1"
readout_relation = "="
meas_value = 6.47

[[record]]
compound = "Cc1nsc(Nc2cncc(C(F)(F)F)n2)c1C(=O)Nc1ccc(C(=O)N2CCN(CCF)CC2)cc1"
readout_relation = "<"
meas_value = 5.00

[[record]]
compound = "Cc1nsc(Nc2cc(C#N)ccn2)c1C(=O)Nc1cccc(C(=O)NC(C)C)c1"
readout_relation = "<"
meas_value = 5.00

[[record]]
compound = "Cc1nsc(Nc2cnc(C(F)(F)F)cn2)c1C(=O)Nc1ccc(F)c(O[C@H]2CCN(CC(F)(F)F)C2)c1"
readout_relation = "="
meas_value = 6.60

[[record]]
compound = "Cc1nsc(Nc2cnc3ccccc3n2)c1C(=O)Nc1cccc(NS(=O)(=O)C2CCCN(C(=O)OCc3ccccc3)C2)c1 (stereo not drawn)"
readout_relation = "="
meas_value = 5.05

[[record]]
compound = "Cc1nsc(Nc2cnc(C(F)(F)F)cn2)c1C(=O)Nc1ccc(OC2CCNCC2)nc1"
readout_relation = "="
meas_value = 5.00

[[record]]
compound = "Cc1nsc(Nc2cnc3ccccc3n2)c1C(=O)Nc1cccc(C(=O)N2CCN(C(=O)N(C)C)CC2)c1"
readout_relation = "="
meas_value = 5.00

[[record]]
compound = "Cc1nsc(Nc2cc(C#N)ccn2)c1C(=O)Nc1cccc(C(=O)OC(C)(C)C)c1"
readout_relation = "="
meas_value = 5.96

[[record]]
compound = "CCCCN1CCC(COc2ccc(NC(=O)c3c(C)nsc3Nc3cnc(C(F)(F)F)cn3)cn2)C(F)(F)C1 (stereo not drawn)"
readout_relation = "="
meas_value = 6.34

[[record]]
compound = "Cc1nsc(Nc2cnc(C(F)(F)F)cn2)c1C(=O)Nc1cccc(S(C)(=O)=O)c1"
readout_relation = "="
meas_value = 5.51

[[record]]
compound = "Cc1nsc(Nc2cnc(C(F)(F)F)cn2)c1C(=O)Nc1ccc(OC2CCN(CCF)C2)nc1 (stereo not drawn)"
readout_relation = "="
meas_value = 6.42

[[record]]
compound = "Cc1nsc(Nc2cnc(C(F)(F)F)cn2)c1C(=O)Nc1ccc(F)c(OCCCN(C)CC(F)F)c1"
readout_relation = "="
meas_value = 6.44

[[record]]
compound = "Cc1nsc(Nc2cnc(C(F)(F)F)cn2)c1C(=O)Nc1ccc(OC2CCN(C(CF)CF)C2)nc1 (stereo not drawn)"
readout_relation = "="
meas_value = 6.21

[[record]]
compound = "Cc1nsc(Nc2cnc3ccccc3n2)c1C(=O)Nc1cccc(C(=O)NCCN(C)C)c1"
readout_relation = "="
meas_value = 5.00

[[record]]
compound = "Cc1nsc(Nc2cnc(C(F)(F)F)cn2)c1C(=O)Nc1ccc(OCCNCC(F)(F)F)nc1"
readout_relation = "="
meas_value = 6.16


Every entry's value here was drawn from patent US20170334899A1.
